Target: alpha2B receptor (Homo sapiens, UniProt P18089)
Construct: expressed in transfected cells; host or cells: NIH-3T3
Sequence (P18089 1-450): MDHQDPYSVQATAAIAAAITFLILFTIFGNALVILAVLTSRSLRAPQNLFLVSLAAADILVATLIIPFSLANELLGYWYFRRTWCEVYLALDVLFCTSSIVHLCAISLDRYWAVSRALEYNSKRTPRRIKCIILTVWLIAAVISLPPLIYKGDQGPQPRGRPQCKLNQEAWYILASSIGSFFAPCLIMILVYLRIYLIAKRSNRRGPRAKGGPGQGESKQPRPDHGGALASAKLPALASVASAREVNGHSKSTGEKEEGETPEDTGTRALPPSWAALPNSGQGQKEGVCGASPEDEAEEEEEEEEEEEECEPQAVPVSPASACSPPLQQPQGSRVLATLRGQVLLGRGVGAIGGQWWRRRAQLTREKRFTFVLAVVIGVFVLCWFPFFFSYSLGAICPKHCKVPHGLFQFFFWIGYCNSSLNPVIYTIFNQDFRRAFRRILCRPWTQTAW
Assay: RSAT assay (Receptor Selection and Amplification Technology), alpha2B
Format: cell-based
Settings: NIH-3T3 cells cotransfected with receptor and Gq/i5; read-out: Alpha 2B potency EC50
Measured parameter: EC50 (nM)
Just the number in nM, nothing appended.

Record request: EC50 value, item c1ccc(C(c2cnc[nH]2)c2cccc3ncccc23)cc1 (centres unmarked) 319

Now consider c1ccc(C(c2cnc[nH]2)c2cccc3cccnc23)cc1 (centres unmarked) . 23
